Every entry's value here was drawn from ChEMBL document CHEMBL3407437.

compounds and their reported pIC50
methodSummary: Inhibition of Escherichia coli UPPS using FPP/IPP as substrate by spectrophotometry
A value of pIC50 is the negative decimal logarithm of a concentration given in moles per litre.

Example compounds with recorded pIC50:
chemicalStructure: O=P(O)(O)C(O)(Cc1cccc(-c2cccc(NS(=O)(=O)c3cccc(S(=O)(=O)Nc4cccc(-c5cccc(CC(O)(P(=O)(O)O)P(=O)(O)O)c5)c4)c3)c2)c1)P(=O)(O)O
pIC50: 6.44

chemicalStructure: COc1cccc(NC(=O)c2ccc(-c3ccc(C(=O)Nc4cccc(C5=NCCN5)c4)cc3)cc2)c1
pIC50: 5.03

chemicalStructure: O=C(Nc1cccc(C2=NCCCN2)c1)c1ccc(-c2ccc(C(=O)Nc3cccc(C4=NCCCN4)c3)cc2)cc1
pIC50: 5.26

chemicalStructure: C(=C\c1cc2ccc(C3=NCCN3)cc2[nH]1)/c1cc2ccc(C3=NCCN3)cc2[nH]1
pIC50: 4.92

chemicalStructure: O=C(Nc1cccc(O[C@@H]2O[C@H](CO)[C@@H](O)[C@H](O)[C@H]2O)c1)c1ccc(-c2ccc(C(=O)Nc3cccc(C4=NCCN4)c3)cc2)cc1
pIC50: 3.42

chemicalStructure: c1cc2cc(-c3ccc(-c4cc5ccc(C6=NCCN6)cc5[nH]4)cc3)[nH]c2cc1C1=NCCN1
pIC50: 6.44

Now consider a different compound.
(Q) Which pIC50 reading was recorded for the compound S=C(Nc1cccc(C2=NCCN2)c1)c1ccc(-c2ccc(C(=S)Nc3cccc(C4=NCCN4)c3)cc2)cc1 ?
(A) 5.04
